# Test system: adjuvant arthritis model rats (8-week old female Lewis rats)
# PROCEDURE SUMMARY: Bone density decrease-suppressing activity in adjuvant arthritis model rats
# Type: in vivo, rat
# CONDITION SET: dose 3 mg/kg, oral once a day for 7 days from day 14 after adjuvant injection; femur bone density on the 21st day
Decision: Bone density decrease-suppressing rate (%) beneath 80% gives met; Bone density decrease-suppressing rate (%) meeting or exceeding 80% gives not met.

Record excerpt, results attached:
O=C(N[C@@H](Cc1ccc(C(F)(F)F)cc1)C(=O)NCCO)c1ccc(OCCC(F)(F)F)cc1 [Example 61]: met
O=C(N[C@@H](Cc1ccc(OC(F)(F)F)cc1)C(=O)NCCO)c1ccc(Oc2ccc(C(F)(F)F)cc2)cc1 [Example 64]: met
O=C(N[C@@H](Cc1ccc(OC(F)(F)F)cc1)C(=O)NCCO)c1ccc(OCC2CC2)cc1 [Example 51]: not met
O=C(N[C@@H](Cc1ccc(OC(F)(F)F)cc1)C(=O)NCCO)c1ccc(OCCC(F)(F)F)cc1 [Example 57]: not met

Q: Strictly below 80% in Bone density decrease-suppressing rate (%)? O=C(N[C@@H](Cc1ccc(OC(F)F)cc1)C(=O)NCCO)c1ccc(OCCC(F)(F)F)cc1 [Example 59]
A: not met
